Item-by-item account of AC50
Tested on: MYB mRNA
experimental.details: Splicing RT-qPCR assay, MYB canonical (CJ) and alternative (AJ) junction mRNA
Type: cell-based, human
setup.conditions: Homo sapiens, 24 h, A673 or K562 cells, 24 hours compound treatment, RT-qPCR; read-out: MYB AJ (AC50, increase in alternative junction mRNA)

-- ask What measured AC50 goes with Cc1cn2cc(NC(=O)c3ccc(N4CC[C@@H](NC5(C)CC5)C4)c4cn(C)nc34)cc(F)c2n1 ?
-- reply 100 to 1000 nM

-- ask Now consider Cc1cn2cc(NC(=O)c3ccc(N4CCN(C)C(C)C4)c4cn(C)nc34)cc(F)c2n1 (stereo not shown) and answer again.
-- reply < 100 nM

-- ask Try this compound next: Cc1cn2cc(NC(=O)c3ccc(N4CCC5(CCCN5)CC4)c4cn(C)nc34)cc(F)c2n1
-- reply < 100 nM

-- ask Okay, and Cc1cn2cc(NC(=O)c3ccc(N(C)C4CC(C)(C)NC(C)(C)C4)c4cn(C)nc34)cc(F)c2n1 ?
-- reply > 10000 nM

-- ask Now consider Cc1cn2cc(NC(=O)c3ccc(N4CC[C@@H](NCC5CC5)C4)c4cn(C)nc34)cc(F)c2n1 and answer again.
-- reply 100 to 1000 nM

-- ask Let us now turn to CNC1CCN(c2ccc(C(=O)Nc3cn4cc(C)nc4c(N(C)C)n3)c3nn(C)cc23)C1 (stereo not shown)
-- reply > 10000 nM

-- ask Now consider Cc1nc2c(C)nc(NC(=O)c3ccc(N4CCNCC4)c4cn(C)nc34)cc2o1 .
-- reply 100 to 1000 nM

====

Here the recorded AC50 is given for each entry.
System: HTT mRNA
experimental.details: Splicing RT-qPCR assay, HTT canonical (CJ) and alternative (AJ) junction mRNA
Format: cell-based, human
setup.conditions: Homo sapiens, A673 or K562 cells, 24 hours compound treatment, read-out: HTT AJ (AC50, increase in alternative junction mRNA)

Consider the reported AC50 for these compounds:
compound="CN[C@@H]1CCN(c2ccc(C(=O)Nc3cn4cc(C)nc4c(Oc4ccccc4)n3)c3nn(C)cc23)C1 [Compound 610]" recorded_result="1 to 10 µM"
compound="Cc1nc2c(F)cc(NC(=O)c3ccc(N4CCNCC4)c4cn(C)nc34)cc2[nH]1 [Compound 509]" recorded_result="> 10 µM"
compound="Cc1cn2cc(NC(=O)c3ccc(N4CC5NC5C4)c4cn(C)nc34)cc(F)c2n1 (stereo not shown) [Compound 563]" recorded_result="0.1 to 1 µM"

-- ask Which measured AC50 belongs to COCCn1cc2c(N3CCNCC3)ccc(C(=O)Nc3cn4cc(C)nc4c(OC)n3)c2n1 [Compound 510] , tested on HTT mRNA?
-- reply 1 to 10 µM

-- ask Query COC(C)Cn1cc2c(N3CCNCC3)ccc(C(=O)Nc3cc(F)c4nc(C)cn4c3)c2n1 (stereo not shown) [Compound 367] next
-- reply 1 to 10 µM

====

The reader will find reported pIC50 values listed item by item below.
Test system: MYB mRNA
experimental.details: Splicing RT-qPCR assay, MYB canonical (CJ) and alternative (AJ) junction mRNA
Assay type: cell-based, human
setup.conditions: Homo sapiens, 24 h, A673 or K562 cells, 24 hours compound treatment, RT-qPCR; read-out: MYB CJ (IC50, decrease in canonical junction mRNA)
pIC50: −log10 of the molar value.

molecule=Cc1cn2cc(NC(=O)c3ccc(N4CCNCC4)c4cn(C)nc34)cc(Cl)c2n1 measurement_name=pIC50 recorded_result="> 7.00"
molecule=CCn1cc2c(N3CC[C@H](NC4CC4)C3)ccc(C(=O)Nc3cc(F)c4nc(C)cn4c3)c2n1 measurement_name=pIC50 recorded_result="6.00 to 7.00"
molecule="Cc1cn2cc(NC(=O)c3ccc(N4CCC(N5CCCC5)C4)c4cc(C)oc34)cc(F)c2n1 (stereo not shown)" measurement_name=pIC50 recorded_result="6.00 to 7.00"

-- ask Please look up its pIC50: Cc1cc2c(N3CCNCC3)ccc(C(=O)Nc3cc(F)c4cn(C)nc4c3)c2o1
-- reply < 5.00

-- ask And Cc1cn2cc(NC(=O)c3ccc(N4CC[C@@H](NC5(CO)CC5)C4)c4cn(C)nc34)cc(F)c2n1 ?
-- reply 6.00 to 7.00

-- ask Moving on to Cn1cc2c(N3CCNCC3)ccc(C(=O)Nc3cc(F)c4nc(CF)oc4c3)c2n1
-- reply > 7.00

-- ask Then what about the molecule CCn1cc2c(C3CCNC3)ccc(C(=O)Nc3cc(F)c4nccn4c3)c2n1 (stereo not shown) ?
-- reply 5.00 to 6.00
